This listing pairs molecules with measured viability, T/C.
- System: K98450-129-R-PDC multicell spheroids, viability;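 further: spheroids exposed to agents for seven days before read-out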
- Method description: Anticancer human tumor K98450-129-R-PDC patient-derived colon adenocarcinoma cell line growth inhibition [PI3K]
- Condition description: second compound 10 µM; first compound 10 µM; stronger effect = lower value

• CCCS(=O)(=O)Nc1ccc(F)c(C(=O)c2c[nH]c3ncc(-c4ccc(Cl)cc4)cc23)c1F + Cc1nc(NC(=O)N2CCCC2C(N)=O)sc1-c1ccnc(C(C)(C)C(F)(F)F)c1 = 7.67%
• CC(Cn1ccc(-c2ccc(C#N)c(Cl)c2)n1)NC(=O)c1cc(C(C)O)[nH]n1 (stereo not drawn) + Cc1nc(NC(=O)N2CCCC2C(N)=O)sc1-c1ccnc(C(C)(C)C(F)(F)F)c1 = 74.3%

Query block: Recorded viability, T/C of C[C@@H](NC(=O)c1ncnc(N)c1Cl)c1ncc(C(=O)Nc2cc(C(F)(F)F)c(Cl)cn2)s1 + Cc1nc(NC(=O)N2CCCC2C(N)=O)sc1-c1ccnc(C(C)(C)C(F)(F)F)c1 , please.
Result block: 58.5%
